molecular target: human recombinant dopamine D3 receptor (Homo sapiens (Human), UniProt P35462); assay: Test of binding inhibition for the human dopamine D3 receptor ([3H]-Metylspiperone SPA binding); settings: [3H]-Metylspiperone 2 nM, Jump-In HEK cell membranes, read-out: hD3_Ki
Sequence (P35462 whole entry): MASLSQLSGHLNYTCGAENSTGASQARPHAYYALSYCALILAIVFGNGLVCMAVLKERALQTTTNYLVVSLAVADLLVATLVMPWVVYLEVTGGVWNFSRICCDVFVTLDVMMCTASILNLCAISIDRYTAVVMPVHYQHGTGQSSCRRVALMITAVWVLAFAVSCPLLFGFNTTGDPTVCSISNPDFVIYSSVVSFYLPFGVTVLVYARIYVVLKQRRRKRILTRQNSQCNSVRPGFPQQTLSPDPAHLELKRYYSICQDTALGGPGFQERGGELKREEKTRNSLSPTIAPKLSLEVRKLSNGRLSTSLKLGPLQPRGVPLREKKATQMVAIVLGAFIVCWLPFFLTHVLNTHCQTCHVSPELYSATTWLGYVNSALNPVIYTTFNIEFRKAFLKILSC
experimental.endpoint: pKi
One number for each entry, as −log10 of the molar value.

>>> assay_value("Cn1ccc2c(C(=O)N[C@H]3CC[C@H](CCN4CCc5sc(OCC(C)(F)F)nc5C4)CC3)cccc2c1=O")
9.80

For each of the molecules below, state pKi.
1. Cc1ncc(CC(=O)N[C@H]2CC[C@H](CCN3CCc4ccc(OCC(C)F)nc4CC3)CC2)s1 (stereo partly drawn)
2. Cc1ncc(/C=C/C(=O)N[C@H]2CC[C@H](CCN3CCc4nc(OCC(F)F)sc4CC3)CC2)s1
3. Cc1nc(CC(=O)N[C@H]2CC[C@H](CCN3CCc4ccc(OCC(C)(F)F)nc4CC3)CC2)no1
4. O=C(NCCCCN1CCc2sc(OCC(F)(F)F)nc2C1)c1ccc2ccccc2c1
5. CN1Cc2c(C(=O)N[C@H]3CC[C@H](CCN4CCc5nc(OCC(F)(F)F)sc5CC4)CC3)cccc2C1=O

1: 9.10; 2: 9.92; 3: 9.85; 4: 8.72; 5: 10.66

For each of the molecules below, state pKi.
1. Cn1cc2c(C(=O)NC3CC4(CC(CCN5CCc6sc(OCC(C)(F)F)nc6C5)C4)C3)cccc2n1 (single isomer, unassigned)
2. Cn1cc(CC(=O)N[C@H]2CC[C@](F)(CCN3CCc4nc(OCC(F)(F)F)sc4CC3)CC2)cn1
3. Cn1ncc(CC(=O)N[C@H]2CC[C@H](CCN3CCc4sc(OCC(C)(F)F)nc4C3)CC2)c1F

1. 10.04
2. 9.24
3. 9.34

For each of the molecules below, state pKi.
1. Cn1cc2c(C(=O)NN3CCC(CCN4CCc5sc(OCC(F)(F)F)nc5C4)CC3)cccc2n1
2. O=C(N[C@H]1CC[C@H](CCN2CC[C@H]3CN(c4ccccc4)C[C@@H]3C2)CC1)c1cccc2ncccc12 (racemic)
3. Cc1nnc(CC(=O)N[C@H]2CC[C@H](CCN3CCc4nc(OCC(F)F)sc4CC3)CC2)o1

9.30
8.44
9.11

For each of the molecules below, state pKi.
1. CC(CF)Oc1nc2c(s1)CCN(CC[C@H]1CC[C@H](NC(=O)c3cccc4nn(C)cc34)CC1)CC2 (stereo partly drawn)
2. O=C(NCCCCN1CCc2ccc(OCC(F)(F)F)nc2CC1)c1cc2ccccc2[nH]1
3. Cn1cc(CC(=O)N[C@H]2CC[C@H](CCN3CCc4sc(OC5CCC(F)(F)C5)nc4C3)CC2)cn1 (stereo partly drawn)
4. Cn1cc(OCC(=O)N[C@H]2CC[C@](F)(CCN3CCc4nc(OCC(F)(F)F)sc4CC3)CC2)cn1
5. Cn1c(C(=O)N[C@H]2CC[C@H](CCN3CCc4nc(OCC(F)(F)F)sc4CC3)CC2)cccc1=O

9.04
9.96
9.36
9.41
9.92

For each of the molecules below, state pKi.
1. CCCOc1nc2c(s1)CCN(CC[C@H]1CC[C@H](NC(=O)c3cccc4nn(C)cc34)CC1)C2
2. Cn1cc2c(C(=O)N[C@H]3CC[C@H](CCN4CCc5nc(OCC(F)F)sc5CC4)CC3)cccc2n1
3. Cc1ncc(CC(=O)N[C@H]2CC[C@H](CCN3CCc4ccc(OCC(F)(F)F)nc4CC3)OC2)o1
4. CC(Oc1nc2c(s1)CCN(CC[C@H]1CC[C@H](NC(=O)c3cccc4nn(C)cc34)CC1)CC2)C(F)(F)F (stereo partly drawn)
5. O=C(CCC(F)(F)F)N[C@H]1CC[C@H](CCN2CCc3sc(N4CC(F)(F)C4)nc3C2)CC1
6. CN1Cc2c(C(=O)N[C@H]3CC[C@H](CCN4CCc5sc(OCC(F)(F)F)nc5C4)CC3)cccc2C1=O

[9.26, 9.70, 9.15, 9.89, 9.60, 10.11]

For each of the molecules below, state pKi.
1. O=C(N[C@H]1CC[C@H](CCN2CCc3cnc(CC4CC4)nc3C2)CC1)c1cccc2ncccc12
2. Cn1cc2c(C(=O)N[C@H]3CC[C@H](CCN4CCc5nc(OCC(C)(C)F)sc5CC4)CC3)cccc2n1
3. Cc1ncc(CC(=O)N[C@H]2CC[C@H](C(F)CN3CCc4ccc(OCC(F)(F)F)nc4CC3)CC2)s1 (stereo partly drawn)
4. O=C1Cc2cccc(C(=O)N[C@H]3CC[C@H](CCN4CCc5nc(OCC(F)F)sc5CC4)CC3)c2N1
5. COc1cc(CC(=O)N[C@H]2CC[C@H](CCN3CCc4nc(OCC(F)(F)F)sc4CC3)OC2)on1
6. Cc1ncc(CC(=O)N[C@H]2CC[C@H](CCN3CCc4cc(C)c(OCC(F)F)nc4CC3)OC2)s1
7. Cc1cc2c(C(=O)N[C@H]3CC[C@H](CCN4CCc5ccc(OCC(F)(F)F)nc5CC4)OC3)cccn2n1

1: 8.10; 2: 9.14; 3: 8.89; 4: 9.96; 5: 9.70; 6: 9.60; 7: 9.80
